- assay system: Growth hormone secretagogue receptor type 1 (Homo sapiens, UniProt Q92847)
- Sequence (Q92847 whole entry): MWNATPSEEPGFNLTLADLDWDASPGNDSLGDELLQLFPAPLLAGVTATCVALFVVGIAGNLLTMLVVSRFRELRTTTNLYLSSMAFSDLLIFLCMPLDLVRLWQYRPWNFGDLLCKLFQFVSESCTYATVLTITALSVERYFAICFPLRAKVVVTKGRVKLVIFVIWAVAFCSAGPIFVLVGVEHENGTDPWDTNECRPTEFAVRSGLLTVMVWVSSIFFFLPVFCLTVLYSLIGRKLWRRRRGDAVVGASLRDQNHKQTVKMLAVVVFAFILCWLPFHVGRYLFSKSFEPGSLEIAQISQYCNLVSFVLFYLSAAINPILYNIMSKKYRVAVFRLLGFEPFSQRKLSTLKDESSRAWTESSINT
- assay protocol: Binding affinity at GHS-R1a (unknown origin) assessed as inhibition constant
readout kind: pKi
Answers are plain numbers, as −log10 of the molar value.

Task: Look up pKi of COc1ccc(Cn2c([C@@H](Cc3c[nH]c4ccccc34)NC(=O)[C@H](CC(C)C)NC(=O)[C@H](CC(C)C)NC(C)=O)nnc2[C@@H](Cc2c[nH]c3ccccc23)NC(=O)[C@@H](N)CCCCN)cc1 and report it.
Result: 8.52

* * *

- assay protocol: Binding affinity at mouse pancreas GHS-R1a assessed as inhibition constant
- Assay type: tissue-based
readout kind: Ki (nM)
Answers are plain numbers, in nM.

// for each molecule below, give its Ki
1. Cc1ccccc1-c1nc2ccc(-c3ccc(Cl)cc3)cc2c(=O)n1C[C@@H]1CCCN(CC[18F])C1
2. C[C@H]1CN(C(=O)c2ccc(-c3ccc(O[11CH3])cc3)cc2)CCN1C(=O)c1ccc2cc[nH]c2c1
3. Cc1ccccc1-c1nc2ccc(-c3ccc(Cl)cc3)cc2c(=O)n1C[C@@H]1CCCN(CCO[11CH3])C1

Result:
1. 16
2. 7
3. 4
